# tested system: Ba/F3-FGFR3-transfected cells (Homo sapiens)
# Sequence (P22607 whole entry, change not shown): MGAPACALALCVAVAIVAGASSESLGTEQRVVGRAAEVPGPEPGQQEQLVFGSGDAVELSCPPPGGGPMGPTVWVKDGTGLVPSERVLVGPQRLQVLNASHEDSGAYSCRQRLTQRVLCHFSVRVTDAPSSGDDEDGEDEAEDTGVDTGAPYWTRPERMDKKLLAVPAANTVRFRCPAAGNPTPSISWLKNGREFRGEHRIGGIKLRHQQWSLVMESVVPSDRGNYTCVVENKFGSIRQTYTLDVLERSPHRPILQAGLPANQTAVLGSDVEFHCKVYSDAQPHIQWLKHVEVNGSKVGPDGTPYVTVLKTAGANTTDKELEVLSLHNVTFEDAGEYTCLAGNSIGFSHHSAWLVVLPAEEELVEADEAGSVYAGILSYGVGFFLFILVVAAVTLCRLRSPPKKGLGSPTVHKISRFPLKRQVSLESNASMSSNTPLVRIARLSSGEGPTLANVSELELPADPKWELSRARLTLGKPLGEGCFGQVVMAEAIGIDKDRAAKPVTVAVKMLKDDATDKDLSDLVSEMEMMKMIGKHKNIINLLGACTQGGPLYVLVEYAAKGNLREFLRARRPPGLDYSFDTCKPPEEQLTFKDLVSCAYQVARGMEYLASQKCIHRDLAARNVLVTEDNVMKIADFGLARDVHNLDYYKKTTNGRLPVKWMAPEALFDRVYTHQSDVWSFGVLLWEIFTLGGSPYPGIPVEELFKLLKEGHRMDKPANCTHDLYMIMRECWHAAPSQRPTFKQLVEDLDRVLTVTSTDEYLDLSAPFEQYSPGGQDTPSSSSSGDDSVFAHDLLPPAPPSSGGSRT
# experimental details: Ba/F3-FGFR3 (minus IL3) cellular proliferation assay, Alamar Blue
# Format: cell-based
# test parameters: minus IL3, 384 well
measured metric: BAF3-FGFR 3 (MIN IL3) 384 well pIC50
Would you mind answering with just the numeric figure?

Below, each entry is followed by its recorded BAF3-FGFR 3 (MIN IL3) 384 well pIC50 result.
compound: CNC(=O)OCCN(c1cc(OC)cc(OC)c1)c1ccc2ncc(-c3ccc(NC(=O)OC(C)(C)C)nc3)nc2c1
experimental result: 5.09
--
compound: COc1cc(OC)cc(N(CCNC(C)C)c2ccc3ncc(-c4ccnc(C(=O)NCCCN)c4)nc3c2)c1
experimental result: 6.41
--
compound: COc1cc(OC)cc(N(CCNC(C)C)c2ccc3ncc(C(=O)NCCCN4CCCCC4)nc3c2)c1
experimental result: 5.64
--
compound: COc1cc(OC)cc(N(CCN2CCOCC2)c2ccc3ncc(-c4ccc(N)nc4)nc3c2)c1
experimental result: 6.19
--
compound: COc1cc(OC)cc(N(CCO)c2ccc3ncc(C4=CCN(C(=O)OC(C)(C)C)C4)nc3c2)c1
experimental result: 6.08
--
compound: COc1cc(OC)cc(N(CC(O)CO)c2ccc3ncc(-c4ccc(N)nc4)nc3c2)c1 (stereo not shown)
experimental result: 6.69
--
compound: COc1cc(OC)cc(N(CCNC(C)C)c2ccc3ncc(N4CCC(CN)CC4)nc3c2)c1
experimental result: 5.83
--
compound: CNCCN(c1cc(OC)cc(OC)c1)c1ccc2ncc(-c3ccc(NC(=O)OC(C)(C)C)nc3)nc2c1
experimental result: 5.91

Exercise: // lookup BAF3-FGFR 3 (MIN IL3) 384 well pIC50 for COc1cc(OC)cc(N(CCNC(C)C)c2ccc3ncc(C(=O)N4CCOCC4)nc3c2)c1
Solution: 5.16

Exercise: Query (compound): COc1cc(OC)cc(N(CCO)c2ccc3ncc(-n4cnc(CO)c4)nc3c2)c1 ; field requested: BAF3-FGFR 3 (MIN IL3) 384 well pIC50
Solution: 6.23

====

# tested system: FGFR4 (h) (Homo sapiens)
# Sequence (P22455 22-802): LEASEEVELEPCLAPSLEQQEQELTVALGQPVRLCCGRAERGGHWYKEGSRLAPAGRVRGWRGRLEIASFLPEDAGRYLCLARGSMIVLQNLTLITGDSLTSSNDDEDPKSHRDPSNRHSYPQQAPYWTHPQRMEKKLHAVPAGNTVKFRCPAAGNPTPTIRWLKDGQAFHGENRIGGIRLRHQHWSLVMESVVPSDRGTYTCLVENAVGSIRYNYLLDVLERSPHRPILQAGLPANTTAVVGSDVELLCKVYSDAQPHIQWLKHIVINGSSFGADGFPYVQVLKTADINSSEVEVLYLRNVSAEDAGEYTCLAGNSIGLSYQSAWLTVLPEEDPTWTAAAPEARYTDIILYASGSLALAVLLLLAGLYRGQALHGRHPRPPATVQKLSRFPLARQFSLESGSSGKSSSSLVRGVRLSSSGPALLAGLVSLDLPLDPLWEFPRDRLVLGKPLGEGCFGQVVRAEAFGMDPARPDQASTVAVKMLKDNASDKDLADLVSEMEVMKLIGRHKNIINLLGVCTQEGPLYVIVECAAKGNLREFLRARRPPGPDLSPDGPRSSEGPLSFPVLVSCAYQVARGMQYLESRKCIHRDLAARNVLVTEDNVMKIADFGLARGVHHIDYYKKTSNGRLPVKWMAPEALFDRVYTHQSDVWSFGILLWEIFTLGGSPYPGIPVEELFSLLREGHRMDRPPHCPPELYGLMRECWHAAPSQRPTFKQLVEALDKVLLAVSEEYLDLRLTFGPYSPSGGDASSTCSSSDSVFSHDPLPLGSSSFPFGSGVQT
# experimental details: FGFR4 (enzymatic assay), TR-FRET
# Assay type: biochemical
# test parameters: read-out: FGFR 4 pIC50 (converted)
measured metric: IC50 (nM)
Number only, in nM; omit the unit.

molecule: COc1cc(OC)cc(N(CC(O)CO)c2ccc3ncc(-c4ccc(N)nc4)nc3c2)c1 (stereo not shown)
unit symbol: nM
IC50: 26.9

Now look at this entry.
Exercise: Need IC50 of COc1cc(OC)cc(N(CCO)c2ccc3ncc(-c4ccc(N5CCNCC5)nc4)nc3c2)c1 , thanks.
Solution: 28.8

====

# tested system: FGFR1 (h) (Homo sapiens, UniProt P11362)
# Sequence (P11362 22-822): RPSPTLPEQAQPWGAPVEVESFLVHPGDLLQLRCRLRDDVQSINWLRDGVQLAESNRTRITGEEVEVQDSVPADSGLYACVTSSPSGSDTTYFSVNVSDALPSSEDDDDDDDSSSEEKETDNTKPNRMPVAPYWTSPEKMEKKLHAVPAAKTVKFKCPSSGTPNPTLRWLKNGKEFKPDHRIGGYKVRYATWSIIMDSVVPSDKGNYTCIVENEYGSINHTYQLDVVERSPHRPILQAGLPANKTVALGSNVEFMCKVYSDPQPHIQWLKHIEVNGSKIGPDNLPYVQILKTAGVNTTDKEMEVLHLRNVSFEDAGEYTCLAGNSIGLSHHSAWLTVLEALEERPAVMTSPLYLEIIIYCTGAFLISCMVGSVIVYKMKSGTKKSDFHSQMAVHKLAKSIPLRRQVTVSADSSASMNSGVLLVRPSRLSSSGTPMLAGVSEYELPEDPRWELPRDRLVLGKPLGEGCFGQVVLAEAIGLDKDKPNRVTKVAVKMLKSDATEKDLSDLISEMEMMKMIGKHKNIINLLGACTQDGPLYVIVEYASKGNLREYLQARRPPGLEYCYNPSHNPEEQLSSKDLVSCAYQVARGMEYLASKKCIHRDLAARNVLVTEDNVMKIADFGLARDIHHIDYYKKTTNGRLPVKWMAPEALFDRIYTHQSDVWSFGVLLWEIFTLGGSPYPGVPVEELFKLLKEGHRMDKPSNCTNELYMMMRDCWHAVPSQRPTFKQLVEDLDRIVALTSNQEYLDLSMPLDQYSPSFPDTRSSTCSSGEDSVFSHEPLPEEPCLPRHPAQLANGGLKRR
# experimental details: FGFR1 (enzymatic assay), TR-FRET
# Format: biochemical
# test parameters: read-out: FGFR 1 pIC50 (converted)
Threshold 20 nM: IC50 strictly smaller gives 1, otherwise -1.

compound: COc1cc(OC)cc(N(CCCO)c2ccc3ncc(-c4ccnc(C(=O)NCCOCCO)c4)nc3c2)c1
qualitative label: -1
//
compound: COc1cc(OC)cc(N(CC2CC2)c2ccc3ncc(Nc4nncs4)nc3c2)c1
qualitative label: -1
//
compound: COc1cc(OC)cc(N(CCCO)c2ccc3ncc(-c4ccc(C)nc4)nc3c2)c1
qualitative label: 1
//
compound: COc1cc(OC)cc(N(CC2CC2)c2ccc3ncc(-c4cnc5[nH]ccc5c4)nc3c2)c1
qualitative label: -1
//
compound: COc1cc(OC)cc(N(CCNC(C)C)c2ccc3ncc(-c4ccn(C)c4)nc3c2)c1
qualitative label: 1
//
compound: COc1cc(OC)cc(N(CC2CC2)c2ccc3ncc(-c4ccc5[nH]ccc5c4)nc3c2)c1
qualitative label: -1

Exercise: Does the reported IC50 of the following compound sit strictly below 20 nM? CO/N=C(\C)c1cnc2ccc(N(CCO)c3cc(OC)cc(OC)c3)cc2n1
Solution: -1

Exercise: In the record for COc1cc(OC)cc(N(CCCO)c2ccc3ncc(-c4cccnc4)nc3c2)c1 , is IC50 less than 20 nM?
Solution: 1

Exercise: # strict comparison: is reported IC50 < 20 nM? input = COc1cc(OC)cc(N(CCCNCC(F)(F)F)c2ccc3ncc(-c4ccnc(C(=O)NCCCN)c4)nc3c2)c1
Solution: -1

Exercise: For this compound, is IC50 lower than 20 nM? COc1cc(OC)cc(N(CC#Cc2ncccc2OC)c2ccc3ncc(-c4cccnc4)nc3c2)c1
Solution: -1

====

Where a name gives a salt, the structure may show the parent alone.
measured metric: melting point (°C)
The reply should be a number in °C, with the unit left off.

Examples from the recorded data:
compound: COCC(O)CN(c1cc(OC)cc(OC)c1)c1ccc2ncc(-c3cccnc3)nc2c1 (single isomer, unassigned) [Compound 47]
experimental result: 153
--
compound: COc1cc(OC)cc(N(CCCNCC(F)(F)F)c2ccc3ncc(-c4cnc(OC)nc4)nc3c2)c1 [Compound 26]
experimental result: 96
--
compound: COc1cc(OC)cc(N(CCNC(C)C)c2ccc3ncc(N4CCC(CN)CC4)nc3c2)c1 (as salt: HCl) (hydrate or solvate) [Compound 67]
experimental result: 193
--
compound: COc1cc(OC)cc(N(CC2CC2)c2ccc3ncc(-c4cnco4)nc3c2)c1 [Compound 55]
experimental result: 152
--
compound: COc1cc(OC)cc(N(CCCNCC(F)(F)F)c2ccc3ncc(C(=O)NCCN4CCOCC4)nc3c2)c1 (as salt: HCl) (hydrate or solvate) [Compound 158]
experimental result: 138
--
compound: COc1cc(OC)cc(N(CCO)c2ccc3ncc(-c4cccnc4)nc3c2)c1 [Compound 9]
experimental result: 151
--
compound: COc1cc(OC)cc(N(CCO)c2ccc3ncc(C4=CCN(C(=O)OC(C)(C)C)CC4)nc3c2)c1 [Compound 178]
experimental result: 150
--
compound: COc1cc(OC)cc(N(CCNC(C)C)c2ccc3ncc(-n4cnc(CO)c4)nc3c2)c1 (as salt: HCl) (hydrate or solvate) [Compound 77]
experimental result: 150

Exercise: Item COCCN(c1cc(OC)cc(OC)c1)c1ccc2ncc(-c3ccn(C)c3)nc2c1 [Compound 6] has what recorded melting point?
Solution: 135

====

# tested system: FGFR2 (h) (Homo sapiens, UniProt P21802)
# Sequence (P21802 22-821): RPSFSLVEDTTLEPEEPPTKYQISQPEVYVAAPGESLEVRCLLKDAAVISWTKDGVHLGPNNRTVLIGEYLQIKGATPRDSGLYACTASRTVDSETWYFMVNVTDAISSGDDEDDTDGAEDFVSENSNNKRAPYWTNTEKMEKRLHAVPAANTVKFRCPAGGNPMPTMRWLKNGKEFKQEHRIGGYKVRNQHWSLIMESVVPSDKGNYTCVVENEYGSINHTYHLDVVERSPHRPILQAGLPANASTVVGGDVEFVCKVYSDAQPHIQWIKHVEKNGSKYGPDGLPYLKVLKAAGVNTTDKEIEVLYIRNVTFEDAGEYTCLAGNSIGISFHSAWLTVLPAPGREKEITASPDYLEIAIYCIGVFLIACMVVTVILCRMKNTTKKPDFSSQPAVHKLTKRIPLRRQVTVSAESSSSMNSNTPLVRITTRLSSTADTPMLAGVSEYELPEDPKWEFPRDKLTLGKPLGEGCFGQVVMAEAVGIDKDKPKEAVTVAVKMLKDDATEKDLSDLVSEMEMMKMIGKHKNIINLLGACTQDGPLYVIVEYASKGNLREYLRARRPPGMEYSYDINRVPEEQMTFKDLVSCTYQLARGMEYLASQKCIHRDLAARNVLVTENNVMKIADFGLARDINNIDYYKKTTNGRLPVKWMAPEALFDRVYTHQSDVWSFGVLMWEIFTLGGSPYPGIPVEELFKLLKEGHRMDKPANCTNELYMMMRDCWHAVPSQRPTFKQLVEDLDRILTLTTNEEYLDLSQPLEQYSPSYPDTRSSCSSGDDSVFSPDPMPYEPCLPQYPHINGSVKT
# experimental details: FGFR2 (enzymatic assay), TR-FRET
# Format: biochemical
# test parameters: read-out: FGFR 2 pIC50 (converted)
# Lookup of reported IC50 keyed by entry

compound: CNC(=O)c1cc(-c2cnc3ccc(N(CCN4CCCC4CO)c4cc(OC)cc(OC)c4)cc3n2)ccn1 (centres unmarked) [Compound 109]
IC50: 0.00631 µM
//
compound: COc1cc(OC)cc(N(CCCO)c2ccc3ncc(-c4ccc(N(C)C(=O)OC(C)(C)C)nc4)nc3c2)c1 [Compound 125]
IC50: 0.309 µM
//
compound: COc1cc(OC)cc(N(CC2CC2)c2ccc3ncc(-n4ccc(C)n4)nc3c2)c1 [Compound 31]
IC50: > 1 µM
//
compound: CCOC(=O)c1ncn(-c2cnc3ccc(N(CC4CC4)c4cc(OC)cc(OC)c4)cc3n2)c1C [Compound 65]
IC50: > 1 µM
//
compound: COc1cc(OC)cc(N(CCO)c2ccc3ncc(C4=CCN(C(=O)OC(C)(C)C)CC4)nc3c2)c1 [Compound 178]
IC50: 0.0123 µM
//
compound: COc1cc(OC)cc(N(CC2CC2)c2ccc3ncc(N4CCN(C)CC4)nc3c2)c1 [Compound 64]
IC50: 0.331 µM
//
compound: COc1cc(OC)cc(N(CCO)c2ccc3ncc(N4CCC(CN)CC4)nc3c2)c1 [Compound 84]
IC50: 0.0912 µM

Continue with the next compound.
Exercise: Query: IC50; subject: COc1cc(OC)cc(N(CC2CC2)c2ccc3ncc(C(=O)Nc4cncn4C)nc3c2)c1 [Compound 27]
Solution: ~4.17 µM

====

Structures can show the parent of a compound that is named as a salt.
measured metric: melting point (°C)
Write the number in °C without appending the unit.

compound: COc1cc(OC)cc(N(CCN2CCN(C(C)=O)CC2)c2ccc3ncc(-c4ccc(N)nc4)nc3c2)c1 [Compound 68]
unit symbol: °C
experimental result: 167
//
compound: COc1cc(OC)cc(N(CCO)c2ccc3ncc(N4CCC(CN)CC4)nc3c2)c1 [Compound 84]
unit symbol: °C
experimental result: 159
//
compound: COc1cc(OC)cc(N(CC2CC2)c2ccc3ncc(Nc4nccs4)nc3c2)c1 [Compound 98]
unit symbol: °C
experimental result: 213
//
compound: COc1cc(OC)cc(N(CCCO)c2ccc3ncc(-c4cnc(N5CCN(C)CC5)c(C)c4)nc3c2)c1 [Compound 135]
unit symbol: °C
experimental result: 179
//
compound: COc1cc(OC)cc(N(CC2CC2)c2ccc3ncc(-c4cn(C)nn4)nc3c2)c1 [Compound 71]
unit symbol: °C
experimental result: 141
//
compound: COc1cc(OC)cc(N(CC2CC2)c2ccc3ncc(N4CCN(C)CC4)nc3c2)c1 [Compound 64]
unit symbol: °C
experimental result: 92
//
compound: COc1cc(OC)cc(N(CC2CC2)c2ccc3ncc(Nc4cnn(C)c4)nc3c2)c1 [Compound 61]
unit symbol: °C
experimental result: 160
//
compound: COc1cc(OC)cc(N(CC2CC2)c2ccc3ncc(-c4c[nH]cn4)nc3c2)c1 [Compound 39]
unit symbol: °C
experimental result: 166

Exercise: Item COc1cc(OC)cc(N(CC2CC2)c2ccc3ncc(-c4cccc(N5CCOCC5)c4)nc3c2)c1 [Compound 92] has what recorded melting point?
Solution: 155

Exercise: melting point for COc1cc(OC)cc(N(CCNC(C)C)c2ccc3ncc(-c4ccnn4C4CCCCO4)nc3c2)c1 (stereo not shown) [Compound 188] ?
Solution: 122

Exercise: # get_value(readout='melting point', item= COc1cc(OC)cc(N(CC2CC2)c2ccc3ncc(-c4nnnn4C)nc3c2)c1 [Compound 83] )
Solution: 168

Exercise: Would you mind telling me what melting point value was observed for COc1cc(OC)cc(N(CCNC(C)C)c2ccc3ncc(NCC4CCNCC4)nc3c2)c1 (as salt: HCl) (hydrate or solvate) [Compound 161] ?
Solution: 185

Exercise: Recorded melting point for COc1cc(OC)cc(N(CCO)c2ccc3ncc(-c4ccncc4)nc3c2)c1 [Compound 11] , please?
Solution: 158

Exercise: Dear colleague, I am looking for the recorded melting point of the following compound: COc1cc(OC)cc(N(CCO)c2ccc3ncc(-c4ccc(N)nc4)nc3c2)c1 [Compound 106]
Solution: 160

Exercise: What value of measured melting point is listed for CO/N=C(\C)c1cnc2ccc(N(CCO)c3cc(OC)cc(OC)c3)cc2n1 [Compound 29] ?
Solution: 149

Exercise: For the compound shown here, COc1cc(OC)cc(N(CC2CC2)c2ccc3ncc(C(=O)Nc4cncn4C)nc3c2)c1 [Compound 27] , give the reported melting point.
Solution: 180

meta.source: patent US10052320B2
